tested on: 786-0; assay: NCI tumour cell line growth inhibition, 48 h
Calls of active or inactive are those of the source. Rule as the data show it: active = GI50 up to about 1.1 µM and inactive = higher.
Endpoint: GI50

- Molecule: "CC(C)(C)OC(=O)C1CC[C@@H](CC(=O)Oc2ccc([N+](=O)[O-])cc2)N1 (some centres not stated)"
  Value reported: "> 100 µM (inactive)"
- Molecule: "CC1(C)Oc2ccc3c(=O)c4ccccc4oc3c2C1C(=O)O (configuration not stated)"
  Value reported: "> 100 µM (inactive)"
- Molecule: "COc1cccc(N2C(=O)C3C4C=C5c6ccccc6N(c6ccccc6)C5(C3C2=O)[C@H]2C(=O)N(c3cccc(OC)c3)C(=O)[C@@H]42)c1 (some centres not stated)"
  Value reported: "> 100 µM (inactive)"

Inquiry: Which GI50 is reported with 786-0 for this entry: CC(=O)O[C@H]1C[C@@H](OC(C)=O)[C@@](C)(O)[C@@H]2[C@@H](OC(C)=O)[C@@]3(O)[C@H](/C=C(/CCl)[C@H]4O[C@H]4[C@@H](OC(C)=O)[C@@]12C)OC(=O)[C@@H]3C ?
Reply text: > 25 µM (inactive)

Inquiry: Which GI50 is reported with 786-0 for this entry: COc1cc2c(cc1O)[C@H](C)C(c1ccc(OC)c(OC)c1)O2 (some centres not stated) ?
Reply text: 11.3 µM (inactive)

Inquiry: Which GI50 is reported with 786-0 for this entry: O=C(CSCC(=O)N/N=C\c1cc(Br)cc(Br)c1O)N/N=C\c1cc(Br)cc(Br)c1O ?
Reply text: 32.5 µM (inactive)

Inquiry: Which GI50 is reported with 786-0 for this entry: Oc1c(Br)ccc2cccnc12 ?
Reply text: 3.91 µM (inactive)

Inquiry: Which GI50 is reported with 786-0 for this entry: COc1cc(/C=C(\NC(=O)c2ccccc2)c2nc3ccc4c(c3[nH]2)C(=O)c2ccccc2C4=O)cc(OC)c1OC ?
Reply text: 28.2 µM (inactive)

Inquiry: Which GI50 is reported with 786-0 for this entry: O=C1C(Cl)=C(OCCCCl)C(=O)c2c(O)ccc(O)c21 ?
Reply text: 2.04 µM (inactive)

* * *

// values below are reported GI50
test system: 786-0; experiment: NCI tumour cell line growth inhibition, 48 h
Activity calls are given as the source filed them. Rule as the data show it: active = GI50 up to about 1.1 µM and inactive = higher.

Solved entries:
- Compound: "O=C1CC2C=CC1C2CO (centres undefined)"
  Target system: "786-0"
  GI50: "> 100 µM (inactive)"
- Compound: "C=C(/C=C/C=C(\\CO)CCC=C(C)C)[C@H]1CCC2([C@H](CCCO)/C(=C(/C)C=O)CC[C@]2(C)O)[C@H]1O (some centres undefined)"
  Target system: "786-0"
  GI50: "> 100 µM (inactive)"
- Compound: "Cc1cccc2nc3cc(O)cc(O)c3c(O)c12"
  Target system: "786-0"
  GI50: "> 10 µM (inactive)"

Shifting focus to the compound that follows.
Inquiry: GET /values?readout=GI50&item= C/C=C/C(C#N)(/C=C/c1ccccc1)OP1(=O)OC(c2ccccc2)C(C)N1C (centres undefined)
Reply text: 17.1 µM (inactive)

* * *

// values below are reported GI50
system: SK-MEL-5; test: NCI tumour cell line growth inhibition, 48 h
Activity calls are given as the source filed them. Cut-off read from the data, not from the text of the source: active = GI50 up to about 1.1 µM and inactive = higher.

- Molecule: "CC(C)CC(N)C(=O)NC(CNC(CCC(N)=O)C(=O)NC(CC(C)C)C(=O)NC(CC(C)C)C(=O)O)Cc1ccc2ccccc2c1 (stereo not drawn)"
  Endpoint: "GI50"
  Value reported: "> 10 µM (inactive)"
- Molecule: "CCCNC(=O)Nc1ccc2c(c1)Cc1cc(N(CCCl)CCCl)ccc1-2"
  Endpoint: "GI50"
  Value reported: "13.7 µM (inactive)"

Inquiry: GET /values?readout=GI50&item= CC(=O)O[C@H]1C(=O)[C@@]2(C)[C@H]([C@H](OC(=O)c3ccccc3)[C@]3(O)C[C@H](OC(=O)[C@H](OC(=O)OCCC(O)CO)[C@@H](NC(=O)c4ccccc4)c4ccccc4)C(C)=C1C3(C)C)[C@]1(OC(C)=O)CO[C@@H]1C[C@@H]2O (stereo partly drawn)
Reply text: < 0.01 µM (active)

Inquiry: GET /values?readout=GI50&item= COC(=O)C1=C(O)c2ccc(Cl)cc2S(=O)(=O)N1C
Reply text: 97.1 µM (inactive)

Inquiry: GET /values?readout=GI50&item= COc1ccc(/C=C2\C(=O)N(C(=O)c3ccc(NC(C)=O)cc3)N=C2C)cc1
Reply text: > 100 µM (inactive)

Inquiry: GET /values?readout=GI50&item= CC(=O)Nc1ccc(/C=N\N2C(=O)c3ccccc3C2=O)cc1
Reply text: > 100 µM (inactive)

Inquiry: GET /values?readout=GI50&item= CCc1[nH]nc(C(N)=O)c1/N=N/N(C)C
Reply text: 70 µM (inactive)

Inquiry: GET /values?readout=GI50&item= CC1=NOC2(C1)C(=O)Nc1ccccc12 (stereo not drawn)
Reply text: 60.5 µM (inactive)
